Source of measurements: patent US11986532B2

Collected Dmax values appear next to each entry.
Target: BCL6 (Homo sapiens)
Construct: endogenous in cells; host or cells: T47D breast cancer epithelial cells
Assay: Immunofluorescence protocol for high content imaging of BCL6 (degradation) in T47D cells, 3 days compound treatment
Type: cell-based
Conditions: T47D, read-out: Mean Dmax (%)** category

Here are 4 molecules together with their reported answers.
[[record]]
molecule = "CNC(=O)COc1cc2cc(Nc3nc(N4CCC(O[C@H]5C[C@H](N6[C@H](C)CN(c7ccc8c(c7)CN(C7CCC(=O)NC7=O)C8=O)C[C@H]6C)C5)CC4)ncc3Cl)ccc2n(C(C)C)c1=O (some centres unmarked)"
test_result = "50 to 70%"

[[record]]
molecule = "CNC(=O)COc1cc2cc(Nc3nc(N4CCC(O[C@H]5C[C@H](N6CCC7(CCN(c8ccc9c(c8)C(=O)N(C8CCC(=O)NC8=O)C9=O)C7)C6)C5)CC4)ncc3Cl)ccc2n(C(C)C)c1=O (some centres unmarked)"
test_result = "50 to 70%"

[[record]]
molecule = "CNC(=O)COc1cc2cc(Nc3nc(N4CCC(O[C@H]5C[C@H](N6CC7(CCN7c7ccc8c(c7)C(=O)N(C7CCC(=O)NC7=O)C8)C6)C5)CC4)ncc3Cl)ccc2n(C(C)C)c1=O (some centres unmarked)"
test_result = "< 50%"

[[record]]
molecule = "CNC(=O)COc1cc2cc(Nc3nc(N4CCC(O[C@H]5C[C@H](N6CC7(CCN7c7ccc8c(c7)CN(C7CCC(=O)NC7=O)C8=O)C6)C5)CC4)ncc3Cl)ccc2n(C(C)C)c1=O (some centres unmarked)"
test_result = "50 to 70%"


Now consider a different molecule.
Dmax lookup needed for CNC(=O)COc1cc2cc(Nc3nc(N4CCC(O[C@H]5C[C@H](N6CC[C@H](c7ccc8c(c7F)CN(C7CCC(=O)NC7=O)C8=O)[C@H](OC)C6)C5)CC4)ncc3Cl)ccc2n(C(C)C)c1=O (some centres unmarked) , thanks.
≥ 70%
